- procedure-text: qHTS of pediatric cancer cell lines to identify multiple opportunities for drug repurposing: Primary screen for Rh30 cells (AID 1347107); also: nearly all actives have a fitted effect of over 75% in size
- experimental-parameters: Rh30 rhabdomyosarcoma viability, CellTiter-Glo luminescence, 48 h; series mostly up to 46 µM
Results filed as inconclusive are left out. Activity calls are given as the source filed them. Calls follow the shape of the dose curve; as a rule, active = well fitted cell-killing curve with a large enough effect; inconclusive = small, poorly fitted or top-dose-only effect; inactive = no such curve, though single readings can be large or run the other way. Positions of bridges follow the written chain, without caps; N, C: chain ends. Non-standard residues stand in square brackets, D forms with d. Residues, ends and D or L forms follow the SMILES beside them. ξ: configuration not given here. *: point of attachment. Octanoyl(6-Me) = CCC(C)CCCCC(=O)*; ξThr(3R) = C[C@@H](O)C(N)C(=O)O; dDab = NCC[C@@H](N)C(=O)O; Dab = NCC[C@H](N)C(=O)O
One label from this list, please: active, inactive

What is the recorded call for this compound in the test? `CC(=CC(=O)Nc1ccccc1C(=O)O)c1ccc2ccccc2c1` inactive

What is the recorded call for this compound in the test? `CN1C(C(=O)Nc2ccccn2)=C(O)c2sc(Cl)cc2S1(=O)=O` inactive

What is the recorded call for this compound in the test? `COC(=O)[C@H](CCCN=C(N)N)NS(=O)(=O)c1ccc(C)cc1` inactive

What is the recorded call for this compound in the test? CCC(C)CCCCC(=O)N[C@@H](CCN)C(=O)NC(C(=O)N[C@H](CCN)C(=O)N[C@@H]1CCNC(=O)C([C@@H](C)O)NC(=O)[C@@H](CCN)NC(=O)[C@@H](CCN)NC(=O)[C@@H](CC(C)C)NC(=O)[C@H](Cc2ccccc2)NC(=O)[C@H](CCN)NC1=O)[C@@H](C)O (stereo partly drawn) ({Octanoyl(6-Me)}-[Dab][ξThr(3R)][dDab][dDab][Dab]F[dL][dDab][dDab][ξThr(3R)]; lactam 4-C) inactive

What is the recorded call for this compound in the test? C=C1CCC2[C@](C)(CO)C(O)CC[C@]2(C)C1CC=C1C(=O)OCC1O (some centres undefined) inactive

What is the recorded call for this compound in the test? `Cc1ncc(-c2ccnc(Nc3ccc(S(C)(=O)=O)cc3)n2)n1C(C)C` inactive

Further cases:
What is the recorded call for this compound in the test? `N#CNC(=NCCCCCCOc1ccc(Cl)cc1)Nc1ccncc1` active

What is the recorded call for this compound in the test? `O=S(=O)(O)CCSSCCS(=O)(=O)O` inactive

---

- procedure-text: qHTS of pediatric cancer cell lines to identify multiple opportunities for drug repurposing: Confirmatory screen for Rh30 cells (AID 1347126); also: nearly all actives have a fitted effect of over 55% in size
- experimental-parameters: Rh30 rhabdomyosarcoma cell viability; series mostly up to 45.9 µM
Inconclusive results are not listed. Calls of active or inactive are those of the source. The call rests on the fitted dose curve; in most records, active means well fitted cell-killing curve with a large enough effect; inconclusive means small, poorly fitted or top-dose-only effect, or effect the other way; inactive means no such curve, though single readings can be large or run the other way.
One label from this list, please: active, inactive

What is the recorded call for this molecule in the test? `C=C1C(=CC=C2CCC[C@]3(C)[C@@H]([C@H](C)CCCC(C)(C)O)CC[C@@H]23)C[C@@H](O)C[C@@H]1O` inactive

Further cases:
What is the recorded call for this molecule in the test? `C[N+](C)([O-])CCNc1ccc(NCC[N+](C)(C)[O-])c2c1C(=O)c1c(O)ccc(O)c1C2=O` inactive

What is the recorded call for this molecule in the test? `CN[C@H]1[C@@H](O)[C@@H]2O[C@@H]3O[C@H](C)CC(=O)[C@]3(O)O[C@@H]2[C@@H](NC)[C@H]1O` inactive

What is the recorded call for this molecule in the test? `CC(=O)[C@]1(O)Cc2c(O)c3c(c(O)c2[C@@H](O[C@H]2C[C@H](N)[C@@H](O)[C@H](C)O2)C1)C(=O)c1ccccc1C3=O` inactive
